B1: Membrane-associated guanylate kinase, WW and PDZ domain-containing protein 2, residues 296 to 340; numbered along this chain, Q86UL8 (parent)
chain: EDNEEPDPLPDNWEMAYTEKGEVYFIDHNTKTTSWLDPRLAKKAK

variants of: B1; test: abundance fitness (aPCA) (normalised: wild type 0, dead -1); higher = more abundant; growth selection in yeast, the domain comes from the species named; details: Homo sapiens
# binarize abundance fitness: threshold -0.3 inclusive, high side 1, low side -1

Study these solved cases before continuing.
| mutation_spec | answer_label |
| --- | --- |
| K45W | 1 |
| D37L | -1 |
| Y24R | -1 |
| E4V | 1 |
| D11H | 1 |

Is abundance fitness for W13L at or above -0.3?
-1

Is abundance fitness for G21L at or above -0.3?
-1

Is abundance fitness for E4P at or above -0.3?
1

Is abundance fitness for T30V at or above -0.3?
-1

Is abundance fitness for P8S at or above -0.3?
1

Is abundance fitness for T18Y at or above -0.3?
-1

Is abundance fitness for D7L at or above -0.3?
1

Is abundance fitness for N12G at or above -0.3?
1

Is abundance fitness for G21Q at or above -0.3?
1
